- assayComment: logP determination by HPLC (EEC Directive 79/831 Annex V. A8)
- setupConditions: HPLC, gradient method, acetonitrile/0.1% aqueous phosphoric acid
property: log.P

Sample answers from the record:
>>> observedmeasurement("CC(Nc1c(-c2c(F)cc(F)cc2F)c(Cl)nc2nc(Cl)nn12)C1CCCCC1 (stereo not drawn)")
4.87
>>> observedmeasurement("CCC(C)CNc1c(-c2c(F)cc(F)cc2F)c(Cl)nc2nc(Cl)nn12 (stereo not drawn)")
4.04
>>> observedmeasurement("Fc1cc(F)c(-c2c(Cl)nc3nc(Br)nn3c2N2CCSCC2)c(F)c1")
3.72

Q) Return the recorded log.P value; entry: `Fc1cccc(Cl)c1-c1c(Cl)nc2nc(Cl)nn2c1N1CCCC1`
A) 3.54

Q) Return the recorded log.P value; entry: `CCC1=CCN(c2c(-c3ccccc3Cl)c(Cl)nc3nc(Cl)nn23)CC1`
A) 4.87

Q) Return the recorded log.P value; entry: `CCC1=CCN(c2c(-c3c(F)cc(F)cc3F)c(Cl)nc3nc(Cl)nn23)CC1`
A) 4.63

Reference for the values: patent US20050222173A1
